Biological target: T1, Myelin protein zero (P0) (Rattus norvegicus, UniProt P06907)
T1 chain: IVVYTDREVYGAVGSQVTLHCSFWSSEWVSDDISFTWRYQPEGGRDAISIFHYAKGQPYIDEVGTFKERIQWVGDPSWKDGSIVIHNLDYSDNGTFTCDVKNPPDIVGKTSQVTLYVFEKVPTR
Assay: flow cytometry saturation binding (RT4 D6P2T cells)
Cy5 = far-red cyanine dye Cy5 on Cys
endpoint: pKd
The read-out pKd is expressed as -log10 of concentration in moles per litre.

**Query** What measured pKd goes with Ac-KNPPDIVGKTSQVTLYVFEKVPTRYC(Cy5)-NH2 [Cy5-P0(101-125)] ?
**Result** 6.98
